Data provenance: patent US20170022281A1

Target: T1, mouse PRLR on Baf3-mPRLR cells (mouse, UniProt Q08501 20-608)
T1 construct: whole, on cells
T1 sequence (looked up): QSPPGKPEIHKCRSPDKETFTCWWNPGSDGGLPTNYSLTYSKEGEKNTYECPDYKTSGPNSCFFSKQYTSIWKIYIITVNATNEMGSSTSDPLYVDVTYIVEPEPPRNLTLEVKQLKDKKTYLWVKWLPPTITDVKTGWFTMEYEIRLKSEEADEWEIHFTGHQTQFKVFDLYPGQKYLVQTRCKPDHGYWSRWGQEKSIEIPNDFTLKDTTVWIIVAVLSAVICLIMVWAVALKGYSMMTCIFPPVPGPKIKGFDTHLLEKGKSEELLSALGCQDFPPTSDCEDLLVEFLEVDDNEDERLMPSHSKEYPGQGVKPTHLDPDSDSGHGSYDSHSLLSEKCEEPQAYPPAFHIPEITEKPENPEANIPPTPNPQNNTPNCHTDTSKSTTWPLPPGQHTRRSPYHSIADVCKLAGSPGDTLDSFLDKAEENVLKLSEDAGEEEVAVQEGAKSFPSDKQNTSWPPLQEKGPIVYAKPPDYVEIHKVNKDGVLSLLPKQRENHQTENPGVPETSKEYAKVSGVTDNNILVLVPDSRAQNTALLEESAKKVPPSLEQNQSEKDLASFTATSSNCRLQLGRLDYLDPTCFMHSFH
Test: FACS Baf3-mPRLR 10 ug/mL
measured.quantity: FACS GeoMean-neg
Reply with the value as a number alone.

Check out these entries, answers already filled in.
Ab9 (antibody, V domains shown, murine monoclonal, isotype G2b; also called murine Ab9) VH: EVQLQQSGPELVRPGASVKISCKASGYSFTDYNMHWVKQSHGKSLEWIGYIYPYNGGAGYNQKFKSKATMNVGISSSTAYMELRSLTSEDSAVYYCARGDGNYVGDMDYWGQGTSVTVSS VL: DIQMTQSPASLSASVGETVTITCRASENIYSYLAWYQQKQGKSPQLLVYNAKTLAEGVPSRFSGSGSGTQFSLKINSLQPEDFGSYYCQHHSGTPFTFGSGTKLEIK	1
Ab11 (antibody, V domains shown, murine monoclonal, isotype G1; also called murine Ab11) VH: EVKLVESGGGLVQPGGSLKLSCAASGFTFSDYYMFWVRQTPEKSLEWVAYISNGGGSTYYPDTVKGRFTISRDNAKNTLYLQMSRLKSEDTAMYYCSRQLFYYGSRGAMGYWGQGTSVTVSS VL: DVLMTQTPLSLPVSLGDQASISCRSSQSIVHSNGNTYLEWYLQKPGQSPKLLIYKVSNRFSGVPDRFSGSGSGTDFTLKISRVEAEDLGVYYCFQGSHVPFTFGSGTKLEIK	25
Ab10 (antibody, V domains shown, murine monoclonal, isotype G2a; also called murine Ab10) VH: EVQLHQSGPELVKPGASVKISCKASGYTFTDYNMHWMKQSHGKSLEWIGYFYPYNGGTGYNQEFKNKATLTVDISSSTAYMELRRLTSEDSAVYYCARGGWGIYYAMDYWGQGTSVTVSS VL: DIQMTQSPASLSASVGETVTITCRASENIYSYLTWYQQKQGKSPQLLVYNAKTLAEGVPSRFSGSGSGTQFSLKINSLQPEDFGSYHCQHHSVTPLTFGAGTKLELK	49
Ab5 (antibody, V domains shown, murine monoclonal, isotype G2a; also called murine Ab5) VH: QVQLQQPGAELVRPGTSVKLSCKASGYTFTSFWMHWVKQRPGQGLEWIGVIDPSDTYTNYNQKFKGKATLTVDTSSSTAYMQLSSLTSEDSAVYYCARGDYSNWFTYWGQGTLVTVSA VL: DVVMTQTPLSLPVSLGDQASISCRSSQRLVHSNGNTYLHWYLQKPGQSPKLLIYKVSNRFSGVPDRFSGSGSGTDFTLKISRVEAEDLGVYFCSQSTHVPWTFGGGTKLEIK	166
LFA102 (antibody, human IgG1, kappa, V domains shown, humanized IgG1 kappa comparator (WO 2008022295)) VH: EVQLVESGGGLVQPGGSLRLSCAVSGFTFSSYGMSWVRQAPGKRLEWVATVSSGGTYTYYPDSVKGRFTISRDNSKNTLYLQMNSLRAEDTAMYYCARHRGNYYATYYYAMDYWGQGTLVTVSS VL: DIVLTQSPDSLAVSLGERATINCKASKSVSTSGYTYMHWYQQKPGQPPKLLIYLASNRESGVPDRFSGSGSGTDFTLTISPVQAEDVATYYCQHSGELPPSFGQGTKLEIKR	4

### Prompt Reported FACS GeoMean-neg for Ab7 (antibody, V domains shown, murine monoclonal, isotype G1; also called murine Ab7) VH: QVQLQQPGAELVMPGTSVKLSCKASGYTFTSYWIHWVKQRPGQGLEWIGEIDPSDSYTNYNQKFKGKATLTVDRSSSTAYMQLSSLTSEDSAVYYCGRSFFTNWFAYWGQGTLVTVSA VL: DVVMTQTPLSLPVSLGDQASISCRSSQSLVHSNGNTYLHWYLQKPGQSPKLLIYKVSNRFSGVPDRFSGSGSGTDFTLKINRVEAEDLGVYFCSQSTHVPFTFGSGTKLEIK : what is it?
### Response 27

### Prompt # lookup: FACS GeoMean-neg of Ab6 (antibody, V domains shown, murine monoclonal, isotype G1; also called murine Ab6) VH: QVQLQQPGAELVMPGSSVKLSCKASGYTFTTYWMHWVKQRPGQGLEWIGEIDPSDSYSNYNQKFKDKATLTVDKSSSTAYMQLSSLTSEDSAVYYCARNGGLGPAWFSYWGQGTLVTVSA VL: DIVMTQSQKFMSTTVGDRVSITCKASQYVGTAVAWYQQKPGQSPKLLIYSASNRYTGVPDRFTDSGSGTDFTLTISNLQSEDLADYFCQQYSSYPWTFGGGTKLEIK
### Response 0
